- Tested on: hyperlipaemic SD male rats
- ASSAY_PROCEDURE: Hypolipemizing activity, 15 days experimental model, modified diet
- Assay type: in vivo
- EXPERIMENTAL_CONTEXT: rat, oral, 100 mg/kg/day
Recorded Total Cholesterol (percent variation vs hyperlipaemic controls) for the following compounds

| COMPOUND | RESULT |
| --- | --- |
| CC(C)COC(=O)c1ccc(OCC(=O)CSc2nc3ccccc3s2)cc1 | -12,9% |

So for CC(C)COC(=O)c1ccc(OCC(CSc2nc3c(N)ncnc3n2[C@@H]2O[C@H](CO)[C@@H](O)[C@H]2O)=NNC(N)=O)cc1 , the logged Total Cholesterol (percent variation vs hyperlipaemic controls) turned out to be -33,8%

Entry under test: CC(C)COC(=O)c1ccc(OCC(O)CSc2nc3ccccc3o2)cc1 (centres unmarked) . Its Total Cholesterol (percent variation vs hyperlipaemic controls) was -34,4%

Lab note: measured Total Cholesterol (percent variation vs hyperlipaemic controls) of CC(C)COC(=O)c1ccc(OCC(O)CSc2nc3ccccc3s2)cc1 (centres unmarked) was -19,0%

The compound CC(C)COC(=O)c1ccc(OCC(=O)CSc2nc3c(N)ncnc3n2[C@@H]2O[C@H](CO)[C@@H](O)[C@H]2O)cc1 showed Total Cholesterol (percent variation vs hyperlipaemic controls) equal to -35,3%

###

Recorded Cholesterol HDL (percent variation vs hyperlipaemic controls) values for a group of molecules are listed next.
- System: hyperlipaemic SD male rats
- ASSAY_PROCEDURE: Hypolipemizing activity, 15 days experimental model, modified diet
- Type: in vivo
- EXPERIMENTAL_CONTEXT: rat, oral, 100 mg/kg/day

Reference set (4 entries):
| MOLECULE | RESULT |
| --- | --- |
| CC(C)COC(=O)c1ccc(OCC(O)CSc2nc3ccccc3o2)cc1 (centres unmarked) | +16,1% |
| CC(C)COC(=O)c1ccc(OCC(CSc2nc3c(N)ncnc3n2[C@@H]2O[C@H](CO)[C@@H](O)[C@H]2O)=NNC(N)=O)cc1 | +19,4% |
| CC(C)COC(=O)c1ccc(OCC(O)CSc2nc3ccccc3s2)cc1 (centres unmarked) | +4,3% |
| CC(C)COC(=O)c1ccc(OCC(=O)CSc2nc3ccccc3s2)cc1 | -0,4% |

Next molecule, please.
In plain terms, CC(C)COC(=O)c1ccc(OCC(=O)CSc2nc3c(N)ncnc3n2[C@@H]2O[C@H](CO)[C@@H](O)[C@H]2O)cc1 has a documented Cholesterol HDL (percent variation vs hyperlipaemic controls) of +21,0%

###

- Test system: hyperlipaemic SD male rats
- ASSAY_PROCEDURE: Hypolipemizing activity, 5 days experimental model, modified Nath diet
- Type: in vivo
- EXPERIMENTAL_CONTEXT: 120 h, rat, oral, 100 mg/kg/day, read-out: Cholesterol HDL (percent variation vs hyperlipaemic controls)
RECORDED_METRIC: change in vivo at 100 mg/kg/day (%)
Supply the numeric figure in %, leaving out any unit text.

Known change in vivo at 100 mg/kg/day results, listed for orientation:
| MOLECULE | change in vivo at 100 mg/kg/day (%) |
| --- | --- |
| CC(C)COC(=O)c1ccc(OCC(=O)CSc2nc3ccccc3s2)cc1 [Example 2] | 10.4 |
| CC(C)COC(=O)c1ccc(OCC(O)CSc2nc3cc(Cl)ccc3s2)cc1 (centres unmarked) [Example 10] | 5.5 |
| CC(C)COC(=O)c1ccc(OCC(O)CSc2nc3ccccc3o2)cc1 (centres unmarked) [Example 11] | 9.5 |

For CC(C)COC(=O)c1ccc(OCCSc2nc3c(N)ncnc3n2[C@@H]2O[C@H](CO)[C@@H](O)[C@H]2O)cc1 [Example 27] on hyperlipaemic SD male rats, measured change in vivo at 100 mg/kg/day was 0.1

// assay hyperlipaemic SD male rats, entry CC(C)COC(=O)c1ccc(OCC(O)CSc2nc3ccccc3s2)cc1 (centres unmarked) [Example 6] , change in vivo at 100 mg/kg/day value = 7.7

Lab entry: hyperlipaemic SD male rats assay, molecule CC(C)COC(=O)c1ccc(OCC(=O)CSc2nc3c(N)ncnc3n2[C@@H]2O[C@H](CO)[C@@H](O)[C@H]2O)cc1 [Example 28] , change in vivo at 100 mg/kg/day = 5.7

Entry CC(C)COC(=O)c1ccc(OCC(O)CSc2nc3cc4ccccc4cc3o2)cc1 (centres unmarked) [Example 15] : change in vivo at 100 mg/kg/day on hyperlipaemic SD male rats = 0.8

Entry CC(C)COC(=O)c1ccc(OCCCSc2nc3c(N)ncnc3n2[C@@H]2O[C@H](CO)[C@@H](O)[C@H]2O)cc1 [Example 25] : change in vivo at 100 mg/kg/day on hyperlipaemic SD male rats = -1.2

###

Form field: Hepatic index (percent variation vs hyperlipaemic controls) (one value per entry).
- Test system: hyperlipaemic SD male rats
- ASSAY_PROCEDURE: Hypolipemizing activity, 5 days experimental model, modified Nath diet
- Format: in vivo
- EXPERIMENTAL_CONTEXT: rat, oral, 100 mg/kg/day, index = (Liver weight/body weight) × 100
Structures can show the parent of a compound that is named as a salt.

Past entries and their recorded results:
| COMPOUND | RESULT |
| --- | --- |
| CC(C)COC(=O)c1ccc(OCC(=O)CSc2nc3ccccc3o2)cc1 | -8,5% |
| CC(C)COC(=O)c1ccc(OCC(=O)CSc2nc3c([nH]2)c(=O)n(C)c(=O)n3C)cc1 | +3,2% |
| CC(C)COC(=O)c1ccc(OCCSc2nc3c(N)ncnc3n2[C@@H]2O[C@H](CO)[C@@H](O)[C@H]2O)cc1 | +0,8% |
| CC(C)COC(=O)c1ccc(OCC(O)CSc2nc3cc4ccccc4cc3o2)cc1 (stereo not shown) | -2,6% |
| CC(C)COC(=O)c1ccc(OCC(CSc2nc3c(N)ncnc3n2[C@@H]2O[C@H](CO)[C@@H](O)[C@H]2O)=NO)cc1 | +3,6% |

According to the records, this compound CC(C)COC(=O)c1ccc(OCC(=O)CSc2nc3ccccc3s2)cc1 displays Hepatic index (percent variation vs hyperlipaemic controls) of -6,5%

Record CC(C)COC(=O)c1ccc(OCC(CSc2nc3c(N)ncnc3n2[C@@H]2O[C@H](CO)[C@@H](O)[C@H]2O)=NNC(N)=O)cc1 , field Hepatic index (percent variation vs hyperlipaemic controls): -1,6%

# Hepatic index (percent variation vs hyperlipaemic controls) of CCOc1ccc2nc(SCC(O)COc3ccc(C(=O)OCC(C)C)cc3)sc2c1 (stereo not shown) = -0,8%

Lookup result for CC(C)COC(=O)c1ccc(OCC(O)CSc2nc3ccccc3o2)cc1 (stereo not shown) ; measured Hepatic index (percent variation vs hyperlipaemic controls): -2,3%

Notebook: CC(C)COC(=O)c1ccc(OCC(O)CSc2nc3ccccc3[nH]2)cc1 (stereo not shown) , Hepatic index (percent variation vs hyperlipaemic controls) read as +3,8%

For reference, reported Hepatic index (percent variation vs hyperlipaemic controls) for CC(C)COC(=O)c1ccc(OCCCSc2nc3c(N)ncnc3n2[C@@H]2O[C@H](CO)[C@@H](O)[C@H]2O)cc1 stands at -1,1%

Record summary for CC(C)COC(=O)c1ccc(OCC(CSc2nc3ccccc3o2)OC(=O)c2cccnc2)cc1 (stereo not shown) : reported Hepatic index (percent variation vs hyperlipaemic controls) = -3,9%

Looking up CC(C)COC(=O)c1ccc(OCC(O)CSc2ncccn2)cc1 (stereo not shown) [Example 5, hydrochloride] , I found its Hepatic index (percent variation vs hyperlipaemic controls) recorded as -4,1%

// Hepatic index (percent variation vs hyperlipaemic controls) value for CC(C)COC(=O)c1ccc(OCC(O)CSc2nc3cc(Cl)ccc3s2)cc1 (stereo not shown) : -2,2%

Lab note: CC(C)COC(=O)c1ccc(OCC(O)CSc2nc3ccccc3s2)cc1 (stereo not shown) gave Hepatic index (percent variation vs hyperlipaemic controls) of +2,2%

response.value for CC(C)COC(=O)c1ccc(OCC(O)CSc2nccn2C)cc1 (stereo not shown) [Example 4, hydrochloride] (field: Hepatic index (percent variation vs hyperlipaemic controls)) = +2,2%

###

- Tested on: catalase enzyme
- ASSAY_PROCEDURE: Hepatic tolerability, 15 days at high dose: catalase enzyme activity in liver (index of peroxysomes proliferation)
- Assay type: in vivo
- EXPERIMENTAL_CONTEXT: rat liver, oral, 15 days, 300 mg/kg/day; absolute values; solvent 539,8
# Catalase enzyme activity annotations

Check out these entries, answers already filled in.
| COMPOUND | ASSAYED_SYSTEM | RESULT |
| --- | --- | --- |
| CC(C)COC(=O)c1ccc(OCC(O)CSc2nc3ccccc3s2)cc1 (centres unmarked) [Example 6] | catalase enzyme | 504,6 umoli/min/mg proteins |
| CC(C)COC(=O)c1ccc(OCC(=O)CSc2nc3ccccc3s2)cc1 [Example 2] | catalase enzyme | 603,0 umoli/min/mg proteins |
| CC(C)COC(=O)c1ccc(OCC(CSc2nc3c(N)ncnc3n2[C@@H]2O[C@H](CO)[C@@H](O)[C@H]2O)=NNC(N)=O)cc1 [Example 33] | catalase enzyme | 378,5 umoli/min/mg proteins |
| CC(C)COC(=O)c1ccc(OCC(=O)CSc2nc3c(N)ncnc3n2[C@@H]2O[C@H](CO)[C@@H](O)[C@H]2O)cc1 [Example 28] | catalase enzyme | 479,7 umoli/min/mg proteins |

Consider the additional compound presented here.
Item: CC(C)COC(=O)c1ccc(OCC(O)CSc2nc3ccccc3o2)cc1 (centres unmarked) [Example 11] | Catalase enzyme activity: 444,7 umoli/min/mg proteins
